Provenance of the data: patent US9732047B2

Tested on: Aorta bearing atherosclerotic plaque
procedure text: Ex-vivo blood vessel binding assay
Set-up: species or system New Zealand white rabbits
setup conditions: 153Gd-labeled compound 0.135 μCi in PBS, 2 h at 37° C., plaque-bearing rabbit aorta sections; percentage of initial activity
endpoint name: % bound

Notebook: CC(C)C[C@@H](N)C(=O)NOCc1ccc(CNC(=O)CN2CCN(CC(=O)[O-])CCN(CC(=O)[O-])CCN(CC(=O)[O-])CC2)cc1.[153Gd+3] [Example 59] , % bound read as 5.2%

Notebook: [153Gd+3].[NH3+][C@@H](CCc1ccccc1)C(=O)NOCc1ccc(CNC(=O)CN(CCN(CC(=O)[O-])CC(=O)[O-])CCN(CC(=O)[O-])CC(=O)[O-])cc1 [Example 39] , % bound read as 15.8%

Notebook: [153Gd+3].[NH3+][C@H](Cc1ccccc1)C(=O)NOCc1ccc(CNC(=O)CN(CCN(CC(=O)[O-])CC(=O)[O-])CCN(CC(=O)[O-])CC(=O)[O-])cc1 [Example 58] , % bound read as 7.3%

Notebook: [153Gd+3].[NH3+][C@H](Cc1c[nH]c2ccccc12)C(=O)NOCCCc1ccc(CNC(=O)CN(CCN(CC(=O)[O-])CC(=O)[O-])CCN(CC(=O)[O-])CC(=O)[O-])cc1 [Example 43] , % bound read as 27.1%

Notebook: [153Gd+3].[NH3+][C@H](Cc1ccc2ccccc2c1)C(=O)NOCc1ccc(CNC(=O)CN(CCN(CC(=O)[O-])CC(=O)[O-])CCN(CC(=O)[O-])CC(=O)[O-])cc1 [Example 57] , % bound read as 30.6%

Notebook: [153Gd+3].[NH3+][C@H](Cc1cc2ccccc2[nH]1)C(=O)NOCc1ccc(CNC(=O)CN(CCN(CC(=O)[O-])CC(=O)[O-])CCN(CC(=O)[O-])CC(=O)[O-])cc1 [Example 61] , % bound read as 19.9%

Notebook: N[C@H](CCc1ccccc1)C(=O)NOCc1ccc(CNC(=O)CN2CCN(CC(=O)[O-])CCN(CC(=O)[O-])CCN(CC(=O)[O-])CC2)cc1.[153Gd+3] [Example 38] , % bound read as 19.1%

Notebook: CC(C)C[C@@H]([NH3+])C(=O)NOc1ccc(CNC(=O)CN(CCN(CC(=O)[O-])CC(=O)[O-])CCN(CC(=O)[O-])CC(=O)[O-])cc1.[153Gd+3] [Example 46] , % bound read as 0.9%

Notebook: [153Gd+3].[NH3+][C@H](Cc1ccc(-c2ccccc2)cc1)C(=O)NOCCCCCCNC(=O)CN(CCN(CC(=O)[O-])CC(=O)[O-])CCN(CC(=O)[O-])CC(=O)[O-] [Example 41] , % bound read as 28.7%

Notebook: CC(C)C[C@@H]([NH3+])C(=O)NOCCCCCCNC(=O)CN(CCN(CC(=O)[O-])CC(=O)[O-])CCN(CC(=O)[O-])CC(=O)[O-].[153Gd+3] [Example 40] , % bound read as 7.2%

Notebook: [153Gd+3].[NH3+][C@H](CC1CCCCC1)C(=O)NOCCCCCCNC(=O)CN(CCN(CC(=O)[O-])CC(=O)[O-])CCN(CC(=O)[O-])CC(=O)[O-] [Example 42] , % bound read as 17.9%

Notebook: [153Gd+3].[NH3+][C@H](CCc1ccccc1)C(=O)NOCc1ccc(CNC(=O)CN(CCN(CC(=O)[O-])CC(=O)[O-])CCN(CC(=O)[O-])CC(=O)[O-])cc1 [Example 37] , % bound read as 12.8%

Notebook: [153Gd+3].[NH3+][C@H](CCc1ccccc1)C(=O)NOc1ccc(CNC(=O)CN(CCN(CC(=O)[O-])CC(=O)[O-])CCN(CC(=O)[O-])CC(=O)[O-])cc1 [Example 47] , % bound read as 6.6%

Notebook: N[C@H](Cc1ccc2ccccc2c1)C(=O)NOCc1ccc(CNC(=O)CN2CCN(CC(=O)[O-])CCN(CC(=O)[O-])CCN(CC(=O)[O-])CC2)cc1.[153Gd+3] [Example 60] , % bound read as 30.9%

Notebook: CONC(=O)C(CCc1ccccc1)NCc1ccc(CNC(=O)CN2CCN(CC(=O)[O-])CCN(CC(=O)[O-])CCN(CC(=O)[O-])CC2)cc1.[153Gd+3] (stereo not shown) [Example 52] , % bound read as 6.9%

Notebook: [153Gd+3].[NH3+][C@H](Cc1ccc(O)cc1)C(=O)NOCc1ccc(CNC(=O)CN(CCN(CC(=O)[O-])CC(=O)[O-])CCN(CC(=O)[O-])CC(=O)[O-])cc1 [Example 63] , % bound read as 11.7%
